assay.target: Wee1 kinase domain (Homo sapiens, UniProt P30291)
Construct: Wee1 kinase domain was purchased from Carna (catalog #05-177); purchased Carna 05-177
Sequence (P30291 299-569 limits assumed): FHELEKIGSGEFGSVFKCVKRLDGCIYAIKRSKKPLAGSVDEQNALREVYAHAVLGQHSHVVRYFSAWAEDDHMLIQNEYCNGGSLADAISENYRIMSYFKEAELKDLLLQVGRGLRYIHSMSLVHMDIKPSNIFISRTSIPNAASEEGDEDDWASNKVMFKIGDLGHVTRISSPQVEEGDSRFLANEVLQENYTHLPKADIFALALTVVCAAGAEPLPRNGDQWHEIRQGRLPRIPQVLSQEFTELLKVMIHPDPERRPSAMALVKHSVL
protocol.description: Wee1 Kinase Biochemical Assay (ADP-Glo)
condition: Wee1 kinase domain, 15 uM ATP, ADP-Glo
pIC50: −log10 of the molar value.
reported.property: pIC50

input: Return value of pIC50 for input CN[C@@H](Cc1ccc(Nc2ncc3c(n2)N(c2cccc(N4C(=O)OC[C@@H]4C)n2)[C@H]2CC(C)(C)OC[C@@]32C)cc1)C(=O)O (single isomer, unassigned) [Example 320] , no commentary.
output: 6.00 to 7.00

input: Give the reported pIC50 for this compound. CN1CCC(n2cc(Nc3ncc4c(n3)N(c3cccc(N=S(C)(C)=O)n3)[C@@H]3CC(C)(C)OC[C@]43C)cn2)CC1 (single isomer, unassigned) [Example 102]
output: > 8.00

input: Indicate the recorded pIC50 value for this compound: CN1Cc2cc(Nc3ncc4c(n3)N(c3cccc(N=S(C)(C)=O)n3)[C@@H]3CC(C)(C)OC[C@]43C)cnc2C1 (single isomer, unassigned) [Example 188]
output: > 8.00

input: Name the recorded pIC50 of the compound listed here: C[C@H]1COC(=O)N1c1cccc(N2c3nc(Nc4ccc(O[C@H]5CCNC5)cc4)ncc3[C@]3(C)COC(C)(C)C[C@H]23)n1 (single isomer, unassigned) [Example 328]
output: 6.00 to 7.00

input: Quickly give me recorded pIC50 for Cc1cc(Nc2ncc3c(n2)N(c2cccc(N=S(C)(C)=O)n2)[C@H]2CC(C)(C)OC[C@@]32C)ccc1[C@@H]1CCN(C)C1 (single isomer, unassigned) [Example 146]
output: 7.00 to 8.00

input: Read off the recorded pIC50 for C[C@H]1COC(=O)N1c1cccc(N2c3nc(Nc4ccc(N5CCN(C)CC5=O)cc4)ncc3[C@]3(C)COC(C)(C)C[C@H]23)n1 (single isomer, unassigned) [Example 270]
output: 7.00 to 8.00

input: Write down pIC50 measured for item CN1CCC[C@@H]1c1ccc(Nc2ncc3c(n2)N(c2cccc(N=S(C)(C)=O)n2)[C@@H]2CC(C)(C)OC[C@]32C)cc1 (single isomer, unassigned) [Example 127]
output: > 8.00

input: State its pIC50 for this compound: C[C@H]1COC(=O)N1c1cccc(N2c3nc(Nc4ccc(C5CN(C)C5)cc4)ncc3[C@@]3(C)COC(C)(C)C[C@@H]23)n1 (single isomer, unassigned) [Example 311]
output: > 8.00

input: Provide pIC50 value for the following compound: C[C@H]1COC(=O)N1c1cccc(N2c3nc(Nc4ccc([C@@H]5CCN(C)C5)nc4)ncc3[C@@]3(C)COC(C)(C)C[C@@H]23)n1 (single isomer, unassigned) [Example 265]
output: > 8.00

input: State its pIC50 for this compound: C[C@H]1COC(=O)N1c1cccc(N2c3nc(Nc4ccc(N5C[C@@H]6C[C@H]5CN6C)c(F)c4)ncc3[C@@]3(C)COC(C)(C)C[C@@H]23)n1 (single isomer, unassigned) [Example 293]
output: > 8.00

* * *

assay.target: Wee1 kinase domain (Homo sapiens)
Construct: Wee1 kinase domain was purchased from Carna (catalog #05-177); purchased Carna 05-177
protocol.description: Wee1 Kinase Biochemical Assay (ADP-Glo)
condition: Wee1 kinase domain, 15 uM ATP, ADP-Glo
reported.property: IC50

input: Output reported IC50 of the molecule CC1(C)C[C@@H]2N(c3cccc(N=S(C)(C)=O)n3)c3nc(Nc4ccc(C5CNC5)nc4)ncc3[C@]2(C)CO1 (single isomer, unassigned) on Wee1 kinase domain (Homo sapiens).
output: 100 to 1000 nM

input: Enter measured IC50, system Wee1 kinase domain (Homo sapiens), for the molecule shown: CNCc1cccc(N2c3nc(Nc4ccccc4)ncc3[C@]3(C)COC(C)(C)C[C@H]23)n1 (single isomer, unassigned)
output: 10 to 100 nM

input: Using Wee1 kinase domain (Homo sapiens) as the test system, report measured IC50 of C[C@H]1COC(=O)N1c1cccc(N2c3nc(Nc4ccc(OC5CNC5)nc4)ncc3[C@]3(C)COC(C)(C)C[C@H]23)n1 (single isomer, unassigned) .
output: 100 to 1000 nM

input: State IC50 (Wee1 kinase domain (Homo sapiens)) of CNCc1cccc(N2c3nc(Nc4ccc([C@H]5CCOC5)cc4)ncc3[C@@]3(C)COC(C)(C)C[C@@H]23)n1 (single isomer, unassigned) .
output: < 10 nM

input: State IC50 (Wee1 kinase domain (Homo sapiens)) of CNCc1cccc(N2c3nc(Nc4ccc(N5C(=O)CC[C@H]5C)cc4)ncc3[C@@]3(C)COC(C)(C)C[C@@H]23)n1 (single isomer, unassigned) .
output: < 10 nM
